- PROTOCOL SUMMARY: Hepatocyte stability assay, mouse
- Format: in vitro ADME
- STATED CONDITIONS: mouse, hepatocytes, Hepatocyte stability Clint

COMPOUND: C=C(Cc1nc(Cc2ccc(C3CCCC3)cc2)no1)C(=O)O
hepatocyte CLint at 10 μM / µL/min/1e6 cells: 160
--
COMPOUND: CCCCCCCCc1noc(/C=C(\C)C(=O)O)n1
hepatocyte CLint at 10 μM / µL/min/1e6 cells: 204
--
COMPOUND: C=C(Cc1nc(Cc2ccc(C(C)(C)C)cc2)no1)C(=O)O
hepatocyte CLint at 10 μM / µL/min/1e6 cells: 31
--
COMPOUND: C=C(Cc1nc(C(F)(F)c2ccc(C)c(Cl)c2)no1)C(=O)O
hepatocyte CLint at 10 μM / µL/min/1e6 cells: 105
--
COMPOUND: C=C(Cc1nc(-c2ccc(C3(CCC)CC3)cc2)no1)C(=O)O
hepatocyte CLint at 10 μM / µL/min/1e6 cells: 28
--
COMPOUND: C=C(Cc1nc(CCc2ccc(Cl)cc2)no1)C(=O)O
hepatocyte CLint at 10 μM / µL/min/1e6 cells: 48
--
COMPOUND: C=C(Cc1ccccc1Cl)C(=O)O [2-(2-chlorobenzyl)acrylic acid, reference compound]
hepatocyte CLint at 10 μM / µL/min/1e6 cells: 95
--
COMPOUND: CCCCOc1ccc(-c2noc(/C=C(\C)C(=O)O)n2)cc1
hepatocyte CLint at 10 μM / µL/min/1e6 cells: 331
--
COMPOUND: C=C(Cc1nc(C2(c3ccc(Cl)cc3)CCC2)no1)C(=O)O
hepatocyte CLint at 10 μM / µL/min/1e6 cells: 17

---

- PROTOCOL SUMMARY: Hepatocyte stability assay, mouse
- Type: in vitro ADME
- STATED CONDITIONS: mouse, hepatocytes, Hepatocyte stability Clint
# note: exactly 100 µL/min/1e6 cells is not below, so it is FALSE; use TRUE for hepatocyte CLint at 10 μM strictly under it

COMPOUND: C=C(Cc1nc(C(F)(F)c2cc(Cl)c(F)c(Cl)c2)no1)C(=O)O
ANSWER LABEL: TRUE

COMPOUND: C=C(Cc1nc(Cc2ccc(C(F)(F)CCCC)cc2)no1)C(=O)O
ANSWER LABEL: FALSE

COMPOUND: C=C(Cc1nc(-c2ccc(Cl)cc2)no1)C(=O)O
ANSWER LABEL: TRUE

COMPOUND: C=C(Cc1nc(C2(c3cc(Cl)c(F)c(Cl)c3)CC2)no1)C(=O)O
ANSWER LABEL: FALSE

COMPOUND: C=C(Cc1nc(CCCCCCCC)co1)C(=O)O
ANSWER LABEL: FALSE

COMPOUND: C=C(Cc1noc(CCCCCCCC)n1)C(=O)O
ANSWER LABEL: FALSE

COMPOUND: C=C(Cc1noc(C(F)(F)CCCCCCC)n1)C(=O)O
ANSWER LABEL: FALSE

COMPOUND: [2H]C([2H])([2H])C([2H])([2H])C([2H])([2H])C([2H])([2H])C([2H])([2H])C([2H])([2H])C([2H])([2H])C([2H])([2H])c1noc(CC(=C)C(=O)O)n1
ANSWER LABEL: FALSE

COMPOUND: C=C(Cc1nc(C(C)CCCCCC)no1)C(=O)O (stereo not drawn)
ANSWER LABEL: FALSE
